- method: Hydrodynamic diameter and polydispersity index by dynamic light scattering
- Assay type: physicochemical
- run_parameters: FxNP, siFLuc, DSPC
result_type: Hydrodynamic diameter (nm)
A number alone suffices; assume nm.

Task: For the molecule CC12CCC3c4ccc(O)cc4CC(CCCCCCCCCS(=O)(CCCC(F)(F)C(F)(F)F)=NC(=O)CCN4CCCC4)C3C1CCC2O (stereo not drawn) , give its measured Hydrodynamic diameter (nm) value.
Output: 337.1

Task: Let me know recorded Hydrodynamic diameter (nm) for C[C@]12CC[C@@H]3c4ccc(O)cc4C[C@@H](CCCCCCCCC[S+]([O-])CCCC(F)(F)C(F)(F)F)[C@H]3[C@@H]1CC[C@@H]2O (stereo partly drawn) [FV, fulvestrant, reference compound] , thanks.
Output: 204.7

Task: Note down Hydrodynamic diameter (nm) recorded for CC12CCC3c4ccc(O)cc4CC(CCCCCCCCCS(=O)(CCCC(F)(F)C(F)(F)F)=NC(=O)CCN4CCCCC4)C3C1CCC2O (stereo not drawn)
Output: 170.8

Task: Give Hydrodynamic diameter (nm) for the following molecule: CC12CCC3c4ccc(O)cc4CC(CCCCCCCCCS(=O)(CCCC(F)(F)C(F)(F)F)=NC(=O)CN4CCCCC4)C3C1CCC2O (stereo not drawn)
Output: 132.6

Task: Return reported Hydrodynamic diameter (nm). Input molecule: CN(C)CCC(=O)N=S(=O)(CCCCCCCCCC1Cc2cc(O)ccc2C2CCC3(C)C(O)CCC3C12)CCCC(F)(F)C(F)(F)F (stereo not drawn)
Output: 426.9

Task: Please give the documented Hydrodynamic diameter (nm) of CC12CCC3c4ccc(O)cc4CC(CCCCCCCCCS(=O)(CCCC(F)(F)C(F)(F)F)=NC(=O)C[N+](C)(C)C)C3C1CCC2O (stereo not drawn)
Output: 539.2

* * *

- method: Hydrodynamic diameter and polydispersity index by dynamic light scattering
- Format: physicochemical
- run_parameters: FxNP, siFLuc, DSPC
- Text: […]
result_type: Hydrodynamic diameter (nm)
Report the figure in nm without appending any unit label.

Task: Please list Hydrodynamic diameter (nm) recorded for the molecule CC12CCC3c4ccc(O)cc4CC(CCCCCCCCCS(=O)(CCCC(F)(F)C(F)(F)F)=NC(=O)CN4CCOCC4)C3C1CCC2O (stereo not shown) [7a]
Output: 149.3

Task: Identify the reported Hydrodynamic diameter (nm) for the following entry. CC12CCC3c4ccc(O)cc4CC(CCCCCCCCCS(=O)(CCCC(F)(F)C(F)(F)F)=NC(=O)CN4CCCC4)C3C1CCC2O (stereo not shown) [7h]
Output: 160.5

Task: Please report the measured Hydrodynamic diameter (nm) for CC12CCC3c4ccc(O)cc4CC(CCCCCCCCCS(=O)(CCCC(F)(F)C(F)(F)F)=NC(=O)Cn4ccnc4)C3C1CCC2O (stereo not shown) [7b]
Output: 141.0

Task: Please report Hydrodynamic diameter (nm) for the following molecule: CC12CCC3c4ccc(O)cc4CC(CCCCCCCCCS(=O)(CCCC(F)(F)C(F)(F)F)=NC(=O)CN)C3C1CCC2O (stereo not shown) [7m]
Output: 447.8

* * *

So I've got a bunch of compounds here, and I need their PDI values.
- method: Hydrodynamic diameter and polydispersity index by dynamic light scattering
- Format: physicochemical
- run_parameters: FxNP, siFLuc, DOPC
Reply with just the number.

Task: Report measured PDI; entry is CC12CCC3c4ccc(O)cc4CC(CCCCCCCCCS(=O)(CCCC(F)(F)C(F)(F)F)=NC(=O)CN4CCCCC4)C3C1CCC2O (stereo not shown) [7e]
Output: 0.068

Task: Tell me measured PDI for CN(C)CC(=O)N=S(=O)(CCCCCCCCCC1Cc2cc(O)ccc2C2CCC3(C)C(O)CCC3C12)CCCC(F)(F)C(F)(F)F (stereo not shown) [7f] please.
Output: 0.041

Task: Write down PDI measured for item CC12CCC3c4ccc(O)cc4CC(CCCCCCCCCS(=O)(CCCC(F)(F)C(F)(F)F)=NC(=O)CN4CCOCC4)C3C1CCC2O (stereo not shown) [7a]
Output: 0.035

Task: Assign PDI to the following record: CC12CCC3c4ccc(O)cc4CC(CCCCCCCCCS(=O)(CCCC(F)(F)C(F)(F)F)=NC(=O)CCN4CCOCC4)C3C1CCC2O (stereo not shown) [7d]
Output: 0.066

Task: Look up PDI of CC12CCC3c4ccc(O)cc4CC(CCCCCCCCCS(=O)(CCCC(F)(F)C(F)(F)F)=NC(=O)CCn4ccnc4)C3C1CCC2O (stereo not shown) [7c] and report it.
Output: 0.043

Task: # return recorded PDI for input CC12CCC3c4ccc(O)cc4CC(CCCCCCCCCS(=O)(CCCC(F)(F)C(F)(F)F)=NC(=O)CCN4CCCCC4)C3C1CCC2O (stereo not shown) [7g]
Output: 0.022

Task: State its PDI: CC12CCC3c4ccc(O)cc4CC(CCCCCCCCCS(=O)(CCCC(F)(F)C(F)(F)F)=NC(=O)Cn4ccnc4)C3C1CCC2O (stereo not shown) [7b]
Output: 0.003

* * *

For each of the compounds below, state its Zeta potential (mV).
- method: Zeta potential (Malvern Zetasizer)
- Assay type: physicochemical
- run_parameters: FxNP, siFLuc, DSPC
Numbers only here, please. The scale is mV.

Task: Please list Zeta potential (mV) recorded for the compound CC12CCC3c4ccc(O)cc4CC(CCCCCCCCCS(=O)(CCCC(F)(F)C(F)(F)F)=NC(=O)CN4CCCC4)C3C1CCC2O (stereo not shown)
Output: −7.54

Task: Give reported Zeta potential (mV) value for CC12CCC3c4ccc(O)cc4CC(CCCCCCCCCS(=O)(CCCC(F)(F)C(F)(F)F)=NC(=O)CN4CCCCC4)C3C1CCC2O (stereo not shown)
Output: −11.13

Task: Indicate its recorded Zeta potential (mV); the compound in question is CC12CCC3c4ccc(O)cc4CC(CCCCCCCCCS(=O)(CCCC(F)(F)C(F)(F)F)=NC(=O)CCN4CCCC4)C3C1CCC2O (stereo not shown)
Output: −3.56

Task: Answer with the recorded Zeta potential (mV) of CN(C)CC(=O)N=S(=O)(CCCCCCCCCC1Cc2cc(O)ccc2C2CCC3(C)C(O)CCC3C12)CCCC(F)(F)C(F)(F)F (stereo not shown) only.
Output: −10.01

Task: // fetch Zeta potential (mV) given entry CC12CCC3c4ccc(O)cc4CC(CCCCCCCCCS(=O)(CCCC(F)(F)C(F)(F)F)=NC(=O)CCN4CCCCC4)C3C1CCC2O (stereo not shown)
Output: −4.92

Task: Recall and state the measured Zeta potential (mV) for CC12CCC3c4ccc(O)cc4CC(CCCCCCCCCS(=O)(CCCC(F)(F)C(F)(F)F)=NC(=O)Cn4ccnc4)C3C1CCC2O (stereo not shown) .
Output: −12.50

Task: Please list Zeta potential (mV) recorded for the compound CC12CCC3c4ccc(O)cc4CC(CCCCCCCCCS(=O)(CCCC(F)(F)C(F)(F)F)=NC(=O)CCn4ccnc4)C3C1CCC2O (stereo not shown)
Output: −10.15

* * *

For each entry below, report its siRNA mass % value.
- method: RNA encapsulation efficiency (modified Quant-iT RiboGreen assay) and loading
- Format: physicochemical
- run_parameters: FxNP, siFLuc, DSPC
Please format your answer as a value with the unit trailing.

Task: Please report siRNA mass % for the following compound: C[C@]12CC[C@@H]3c4ccc(O)cc4C[C@@H](CCCCCCCCC[S+]([O-])CCCC(F)(F)C(F)(F)F)[C@H]3[C@@H]1CC[C@@H]2O (some centres unmarked) [FV, fulvestrant, reference compound]
Output: 0.9%

Task: Return value of siRNA mass % for input CC12CCC3c4ccc(O)cc4CC(CCCCCCCCCS(=O)(CCCC(F)(F)C(F)(F)F)=NC(=O)CCN4CCCCC4)C3C1CCC2O (centres unmarked) [7g] , no commentary.
Output: 4.7%

Task: Dear colleague, please send me the reported siRNA mass % for CC12CCC3c4ccc(O)cc4CC(CCCCCCCCCS(=O)(CCCC(F)(F)C(F)(F)F)=NC(=O)CN4CCCCC4)C3C1CCC2O (centres unmarked) [7e] when you can.
Output: 4.6%

Task: Supply siRNA mass % value. Item: CC12CCC3c4ccc(O)cc4CC(CCCCCCCCCS(=O)(CCCC(F)(F)C(F)(F)F)=NC(=O)C[N+](C)(C)C)C3C1CCC2O (centres unmarked) [7l]
Output: 4.5%

Task: Give the reported siRNA mass % for this compound. CC12CCC3c4ccc(O)cc4CC(CCCCCCCCCS(=O)(CCCC(F)(F)C(F)(F)F)=NC(=O)CN4CCCC4)C3C1CCC2O (centres unmarked) [7h]
Output: 4.4%

Task: Look up siRNA mass % of CN1CCN(CC(=O)N=S(=O)(CCCCCCCCCC2Cc3cc(O)ccc3C3CCC4(C)C(O)CCC4C23)CCCC(F)(F)C(F)(F)F)CC1 (centres unmarked) [7i] and report it.
Output: 2.7%

Task: Output measured siRNA mass % for this item: CC12CCC3c4ccc(O)cc4CC(CCCCCCCCCS(=O)(CCCC(F)(F)C(F)(F)F)=NC(=O)CCN4CCCC4)C3C1CCC2O (centres unmarked) [7j]
Output: 3.7%

Task: // fetch siRNA mass % given entry CN(C)CCC(=O)N=S(=O)(CCCCCCCCCC1Cc2cc(O)ccc2C2CCC3(C)C(O)CCC3C12)CCCC(F)(F)C(F)(F)F (centres unmarked) [7k]
Output: 4.2%

Task: Write down siRNA mass % measured for item CC12CCC3c4ccc(O)cc4CC(CCCCCCCCCS(=O)(CCCC(F)(F)C(F)(F)F)=NC(=O)Cn4ccnc4)C3C1CCC2O (centres unmarked) [7b]
Output: 4.4%

Task: Report siRNA mass % for CC12CCC3c4ccc(O)cc4CC(CCCCCCCCCS(=O)(CCCC(F)(F)C(F)(F)F)=NC(=O)CCN4CCOCC4)C3C1CCC2O (centres unmarked) [7d]
Output: 4.4%

Task: Provide measured siRNA mass % value, entry: CC12CCC3c4ccc(O)cc4CC(CCCCCCCCCS(=O)(CCCC(F)(F)C(F)(F)F)=NC(=O)CCn4ccnc4)C3C1CCC2O (centres unmarked) [7c]
Output: 4.5%

Task: Find the measured siRNA mass % of CN(C)CC(=O)N=S(=O)(CCCCCCCCCC1Cc2cc(O)ccc2C2CCC3(C)C(O)CCC3C12)CCCC(F)(F)C(F)(F)F (centres unmarked) [7f] and report it.
Output: 4.9%

Task: Quote siRNA mass % reported for CC12CCC3c4ccc(O)cc4CC(CCCCCCCCCS(=O)(CCCC(F)(F)C(F)(F)F)=NC(=O)CN4CCOCC4)C3C1CCC2O (centres unmarked) [7a] please.
Output: 3.6%

Task: Look up and report measured siRNA mass % for this entry: CC12CCC3c4ccc(O)cc4CC(CCCCCCCCCS(=O)(CCCC(F)(F)C(F)(F)F)=NC(=O)CN)C3C1CCC2O (centres unmarked) [7m]
Output: 4.7%

The measurements presented in this section are drawn from patent US20250017856A1.
